# SYSTEM_NAME: human OX2R (Homo sapiens, UniProt O43614)
# Construct: expressed in transfected cells; host or cells: CHO (Chinese hamster ovary) cells, grown under G418 selection
# Sequence (O43614 whole entry): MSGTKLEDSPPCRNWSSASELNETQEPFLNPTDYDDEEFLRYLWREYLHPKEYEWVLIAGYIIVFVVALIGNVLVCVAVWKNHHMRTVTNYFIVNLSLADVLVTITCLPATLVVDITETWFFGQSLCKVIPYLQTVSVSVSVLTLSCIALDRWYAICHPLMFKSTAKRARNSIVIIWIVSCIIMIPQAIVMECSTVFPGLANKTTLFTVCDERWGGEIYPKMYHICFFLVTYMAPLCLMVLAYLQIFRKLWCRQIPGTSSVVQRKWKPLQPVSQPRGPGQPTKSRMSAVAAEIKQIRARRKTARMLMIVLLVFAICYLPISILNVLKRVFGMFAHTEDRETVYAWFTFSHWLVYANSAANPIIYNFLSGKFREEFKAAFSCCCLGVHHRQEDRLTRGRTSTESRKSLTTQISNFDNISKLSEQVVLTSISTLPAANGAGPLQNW
# METHOD_SUMMARY: IPOne (IP-1 accumulation) assay in CHO cells expressing human OX2R
# Assay type: cell-based
# CONDITION: CHO cells expressing human OX2R; IP-One assay, 2 hours incubation; four parameter logistic fit; read-out: OX2R Potency, EC50
# Text: The utility of the compounds in accordance with the present invention as orexin receptor OX1R and/or OX2R agonists may be readily determined without undue experimentation by methodology well known in the art. […] The half-life of IP-3 is relatively short, being rapidly metabolized to inositol monophosphate (IP-1), which can be readily detected using a commercially available assay kit (IP-One; Cisbio; cat #621PAPEC) coupled with a cell line expressing the target receptor(s) of interest. […]

COMPOUND	EC50 (nM)
CS(=O)(=O)N[C@H]1CCN(C(=O)NC2CC2)[C@H]1CO[C@H]1CC[C@@H](c2ccccc2)CC1 (relative stereo)	250
COC(=O)N1CC[C@H](NS(=O)(=O)c2ccccc2)[C@@H]1CO[C@H]1CC[C@@H](c2ccccc2)CC1 (relative stereo)	3700
CCOC(=O)N1CC[C@@H](NS(C)(=O)=O)[C@H]1CO[C@H]1CC[C@@H](c2ccccc2)CC1 (relative stereo)	252
